Experiment: qHTS for Inhibitors of human tyrosyl-DNA phosphodiesterase 1 (TDP1): qHTS in cells in presence of CPT; further: nearly all actives have a fitted effect of over 55% in size
Conditions: chicken DT40 Tdp1-/-;hTDP1 cells + 20 nM CPT, ATP luminescence, 48 h; series mostly up to 46.2 µM
Out of some 420,000 compounds screened, about 50,000 (12%) were called active. Not shown: some 26% with an inconclusive outcome. The call rests on the fitted dose curve; in most records, active means well fitted inhibition curve with a large enough effect; inconclusive means small, poorly fitted or top-dose-only effect; inactive means flat fitted curve, though single readings scatter. The sample holds actives, similar compounds and a random draw of the others, so the mix is not that of the screen.
The categories you may choose from are true (active), false (inactive)

Some entries whose results are on file:
So what was the verdict on `COc1ccc(C)cc1N(CC(=O)N1CCCC1)S(=O)(=O)c1ccccc1` in this test?
false

In this assay, the call recorded for `C[C@H]1CN([C@@H](C)CO)C(=O)CCCn2cc(nn2)CO[C@@H]1CN(C)S(=O)(=O)c1ccc(-c2ccccc2)cc1` was what?
false

Look up the recorded call for `CCCCNC(=O)C[C@@H]1C[C@@]2(C(=O)OCC)CCC=C2N(Cc2cccc3ccccc23)C1=O` in this test.
true

GET /call?item= `C=CCCC(=O)N1C[C@H]2CON(C)[C@H]2C[C@H]1c1cccc(Nc2ccccc2)c1` returns the recorded outcome of this test.
false

Recorded call for `CCOC(=O)c1ccc(NC(=O)CNC(=O)c2ccco2)cc1` ?
false

New cases:
Kindly provide the recorded test outcome for the following compound: `CC(C)c1c(O)nc(SCCOc2ccc(Cl)cc2)[nH]c1=O`
false

Could you kindly confirm the outcome this assay logged for `COCCNc1nc(-c2ccccc2)nc2c1oc1ccccc12` ?
false

Write down the call the test reported for this compound. Item: `O=S(=O)(c1ccccc1)c1nc(-c2ccccc2)oc1NCCCN1CCOCC1`
false

Which outcome did this test record for the compound `CCCn1c(=NC(C)=O)c(C(=O)OCC)cc2c(=O)n3ccccc3nc21` ?
false

What did the test return for CC1CN(C(=O)c2ccccc2NS(=O)(=O)c2cccc([N+](=O)[O-])c2)CC(C)O1 (stereo not given) ?
false
